# TEST_SYSTEM: Calcium-activated potassium channel subunit alpha-1 (Homo sapiens) + Leucine-rich repeat-containing protein 26 (Homo sapiens) (UniProt Q12791+Q2I0M4)
# Sequence (Q2I0M4 whole entry, looked up, one chain of several): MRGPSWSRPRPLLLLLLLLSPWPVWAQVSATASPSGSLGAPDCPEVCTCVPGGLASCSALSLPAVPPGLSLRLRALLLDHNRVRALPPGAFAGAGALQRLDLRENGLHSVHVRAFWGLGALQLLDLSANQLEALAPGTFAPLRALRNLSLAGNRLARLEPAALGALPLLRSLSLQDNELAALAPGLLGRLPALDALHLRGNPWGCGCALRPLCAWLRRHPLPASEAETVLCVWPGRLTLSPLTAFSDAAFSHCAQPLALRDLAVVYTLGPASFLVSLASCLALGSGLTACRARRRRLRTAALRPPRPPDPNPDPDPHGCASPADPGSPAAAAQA
# ASSAY_EXPLANATION: BK channel mutant inhibitors and activators – cell-based, U2OS BacMam, thallium flux, beta subunits, selectivity assay, profiling panel (AID 1259406);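 also: initial slope of Thallos dye fluorescence rise after thallium is added; log ratio against the mean of 0.3% DMSO vehicle wells on the same plate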
# CONDITION_SUMMARY: U2OS BacMam BK variants, F380Y/Slo1WT/gamma1, at 30 µM
log fold change Tl+ flux reference
ASSAY_READOUT: log fold change Tl+ flux

[[record]]
substance_smiles = "NS(=O)(=O)c1cc(C(=O)O)c(NCc2ccco2)cc1Cl"
assay_readout = "log fold change Tl+ flux"
endpoint_result = -0.028

[[record]]
substance_smiles = "Cc1ccc(NC(=O)c2ccc(CN3CCN(C)CC3)cc2)cc1Nc1nccc(-c2cccnc2)n1"
assay_readout = "log fold change Tl+ flux"
endpoint_result = -0.0387

[[record]]
substance_smiles = "Cc1ccnc2c1NC(=O)c1cccnc1N2C1CC1"
assay_readout = "log fold change Tl+ flux"
endpoint_result = -0.00356

[[record]]
substance_smiles = "CCOC(=O)c1ncn2c1CN(C)C(=O)c1cc(F)ccc1-2"
assay_readout = "log fold change Tl+ flux"
endpoint_result = -0.0345

[[record]]
substance_smiles = "COCc1c(C(C)C)nc(C(C)C)c(/C=C/[C@@H](O)C[C@@H](O)CC(=O)O)c1-c1ccc(F)cc1"
assay_readout = "log fold change Tl+ flux"
endpoint_result = 0.103

[[record]]
substance_smiles = "Cc1ccsc1C(=CCCN1CCC[C@@H](C(=O)O)C1)c1sccc1C"
assay_readout = "log fold change Tl+ flux"
endpoint_result = 0.0044

[[record]]
substance_smiles = "O=C(NCCN1CCOCC1)c1ccc(Cl)cc1"
assay_readout = "log fold change Tl+ flux"
endpoint_result = -0.000886

[[record]]
substance_smiles = "O=C(c1ccc(F)cc1)C1CCN(CCn2c(=S)[nH]c3ccccc3c2=O)CC1"
assay_readout = "log fold change Tl+ flux"
endpoint_result = -0.000443


----------
# Tested on: R275C/beta1
# ASSAY_EXPLANATION: BK channel mutant inhibitors and activators – cell-based, U2OS BacMam, thallium flux, beta subunits, selectivity assay, profiling panel (AID 1259406);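 also: initial slope of Thallos dye fluorescence rise after thallium is added; log ratio against the mean of 0.3% DMSO vehicle wells on the same plate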
# CONDITION_SUMMARY: U2OS BacMam BK variants, at 30 µM
The threshold is inclusive: log fold change Tl+ flux of exactly 0.007 counts as Met; values below receive Not met.

[[record]]
molecule = "O=C1N(c2ccccc2)c2ccccc2C1(Cc1ccncc1)Cc1ccncc1"
category_label = "Met"

[[record]]
molecule = "COc1cc(C(=O)NS(=O)(=O)c2ccccc2C)ccc1Cc1cn(C)c2ccc(NC(=O)OC3CCCC3)cc12"
category_label = "Met"

[[record]]
molecule = "O=C1Nc2ccc(Cl)cc2[C@@](C#CC2CC2)(C(F)(F)F)O1"
category_label = "Met"

[[record]]
molecule = "Cc1[nH]c(=O)c(C#N)cc1-c1ccncc1"
category_label = "Not met"

[[record]]
molecule = "Brc1c(NC2=NCCN2)ccc2nccnc12"
category_label = "Met"

[[record]]
molecule = "OCc1cccnc1"
category_label = "Not met"

[[record]]
molecule = "COC(=O)CCc1ccc(OCC(O)CNC(C)C)cc1 (centres undefined)"
category_label = "Met"

[[record]]
molecule = "COC(=O)C1=C(C)NC(C)=C(C(=O)OC(C)C)C1c1cccc2nonc12 (centres undefined)"
category_label = "Not met"

[[record]]
molecule = "Cc1cccc(C)c1OCC(C)N (centres undefined)"
category_label = "Met"

[[record]]
molecule = "COc1cc2nc(N3CCN(C(=O)C4CCCO4)CC3)nc(N)c2cc1OC (centres undefined)"
category_label = "Not met"

[[record]]
molecule = "CCN1CCCC1CNC(=O)c1cc(S(=O)(=O)CC)c(N)cc1OC (centres undefined)"
category_label = "Not met"

[[record]]
molecule = "COc1ccc2nc(S(=O)Cc3ncc(C)c(OC)c3C)[nH]c2c1 (centres undefined)"
category_label = "Met"

[[record]]
molecule = "Cc1ccc(NC(=O)c2ccc(CN3CCN(C)CC3)cc2)cc1Nc1nccc(-c2cccnc2)n1"
category_label = "Not met"

[[record]]
molecule = "CC(C)(C)C(O)/C=C/c1ccc2c(c1)OCO2 (centres undefined)"
category_label = "Met"

[[record]]
molecule = "CC(C)(C)NC(=O)[C@@H]1CN(Cc2cccnc2)CCN1C[C@@H](O)C[C@@H](Cc1ccccc1)C(=O)N[C@H]1c2ccccc2C[C@H]1O"
category_label = "Not met"

[[record]]
molecule = "CN(C)CC[C@@H](c1ccc(Cl)cc1)c1ccccn1"
category_label = "Met"

[[record]]
molecule = "Cc1c(O)cccc1C(=O)N[C@@H](CSc1ccccc1)[C@H](O)CN1C[C@H]2CCCC[C@H]2C[C@H]1C(=O)NC(C)(C)C"
category_label = "Met"

[[record]]
molecule = "CCCN1CCCC[C@H]1C(=O)Nc1c(C)cccc1C"
category_label = "Met"

[[record]]
molecule = "c1cnc(N2CCN(Cc3ccc4c(c3)OCO4)CC2)nc1"
category_label = "Met"


Entry source: PubChem BioAssay
